- Study System: T1, human ICOS-hFc (homodimeric, bivalent) (human, UniProt Q9Y6W8 21-141)
- T1 construct: also called hICOS-Fc; hICOS-hFc; not shown: human IgG1 Fc (IgG1 backbone)
- T1 sequence: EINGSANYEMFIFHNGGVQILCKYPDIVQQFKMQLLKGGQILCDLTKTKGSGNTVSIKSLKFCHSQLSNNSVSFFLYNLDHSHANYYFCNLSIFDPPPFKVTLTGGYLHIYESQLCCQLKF
- Experiment: BLI (Octet RED96), full-length IgG vs homodimeric ICOS-Fc (avid)
- Procedure: Affinity measurements were conducted using Bio-Layer Interferometry (BLI) technology (ForteBio Octet® RED96). The monovalent affinities were generated with IgG versions of the antibodies with monovalent, heterodimeric forms of the ICOS receptor. The avid affinities were generated using full-length IgGs against homodimeric forms of the ICOS receptor.
Readout: koff

Reported koff for 35A9 (antibody, V domains shown, Armenian hamster monoclonal tested as IgG; also called hamster anti-ICOS 35A9) VH: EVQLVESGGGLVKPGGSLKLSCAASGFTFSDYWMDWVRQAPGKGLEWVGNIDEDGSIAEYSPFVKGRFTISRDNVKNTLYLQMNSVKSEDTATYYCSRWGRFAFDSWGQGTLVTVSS VL: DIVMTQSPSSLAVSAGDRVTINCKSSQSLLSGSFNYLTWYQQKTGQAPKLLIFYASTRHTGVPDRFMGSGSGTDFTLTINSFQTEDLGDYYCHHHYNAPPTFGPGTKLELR was < 1e-07 s⁻¹
